// provenance: the supplement of paper PMC10567573

Attribute: protein stability index
B1: EPB41L3 (parent)
chain: SDYISEFRFAPNHTKELEDKVIEL

Variants of: B1
Assay: protein stability index of a GFP-peptide fusion (GPS, HEK-293T) (PSI 1-6); higher = more stable;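 note: lentivirally expressed fusions sorted by FACS into six bins by GFP to DsRed ratio, PSI derived from sequencing read proportions per bin multiplied by bin number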
Settings: c terminus: a fixed tail appended

Here are 4 variants together with their reported answers.
E23T = 1.96
E6K = 1.85
F7D = 4.89
S5A = 1.93

Determine from records and report protein stability index for I22P 2.58

Determine from records and report protein stability index for T14D 2.49

Determine from records and report protein stability index for V21Q 1.99

Determine from records and report protein stability index for D19G 2.06

Determine from records and report protein stability index for Y3W 2.39

Determine from records and report protein stability index for L17Q 2.18
